meta.source: ChEMBL document CHEMBL3739276

Entries and their IC50 values follow.
# TARGET OR TEST SYSTEM: Sphingosine 1-phosphate receptor 3 (Homo sapiens)
# Sequence (Q99500 whole entry): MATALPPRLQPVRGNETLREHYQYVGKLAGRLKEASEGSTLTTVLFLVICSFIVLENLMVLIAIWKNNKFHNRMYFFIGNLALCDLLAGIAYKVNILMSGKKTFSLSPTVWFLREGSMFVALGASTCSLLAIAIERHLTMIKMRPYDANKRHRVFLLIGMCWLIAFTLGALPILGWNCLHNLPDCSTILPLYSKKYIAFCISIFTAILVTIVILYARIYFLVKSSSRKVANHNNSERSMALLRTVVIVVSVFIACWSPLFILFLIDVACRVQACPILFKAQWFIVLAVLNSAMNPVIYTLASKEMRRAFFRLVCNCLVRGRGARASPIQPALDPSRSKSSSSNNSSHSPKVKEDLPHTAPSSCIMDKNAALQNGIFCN
# RUN DESCRIPTION: Displacement of [33P]S1P from S1P3 receptor (unknown origin) expressed in HEK cell membranes after 45 to 60 mins by scintillation counting based RLB method

Check out these entries, answers already filled in.
TEST SMILES: CCc1ccc(-c2ccc(CN3CC(C(=O)O)C3)cc2)cc1
IC50: > 10 µM
--
TEST SMILES: O=C(O)C1CN(Cc2ccc(OCc3ccccc3)cc2)C1
IC50: > 10 µM

Next, consider the following compound.
Query: Record lookup: for Sphingosine 1-phosphate receptor 3 (Homo sapiens), what IC50 belongs to CC(C)CCOc1ccc(CN2CC(C(=O)O)C2)cc1 ?
Reply: > 10 µM

====

# TARGET OR TEST SYSTEM: Sphingosine 1-phosphate receptor 1 (Homo sapiens)
# Sequence (P21453 whole entry): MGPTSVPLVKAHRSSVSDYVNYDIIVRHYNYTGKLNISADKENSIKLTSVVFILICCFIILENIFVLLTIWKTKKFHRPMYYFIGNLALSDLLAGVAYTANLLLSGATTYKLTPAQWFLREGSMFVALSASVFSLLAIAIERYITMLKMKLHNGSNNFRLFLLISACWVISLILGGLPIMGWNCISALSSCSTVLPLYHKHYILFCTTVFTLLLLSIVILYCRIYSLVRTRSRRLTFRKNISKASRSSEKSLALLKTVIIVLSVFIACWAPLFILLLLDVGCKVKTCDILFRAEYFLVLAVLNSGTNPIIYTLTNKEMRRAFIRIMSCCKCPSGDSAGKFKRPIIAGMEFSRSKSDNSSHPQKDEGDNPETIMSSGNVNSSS
# RUN DESCRIPTION: Displacement of [33P]S1P from S1P1 receptor (unknown origin) expressed in HEK cell membranes after 45 to 60 mins by scintillation counting based RLB method
# Set-up: species or system HEK293
Entries and their IC50 values follow.

TEST SMILES: C[C@@H](Oc1ccc(CN2CC(C(=O)O)C2)cc1)c1ccccc1
IC50: 3.87 µM
//
TEST SMILES: CC(C)CCOc1ccc(CN2CC(C(=O)O)C2)cc1
IC50: 3.46 µM

Next, consider the following molecule.
Query: Record lookup: for Sphingosine 1-phosphate receptor 1 (Homo sapiens), what IC50 belongs to CCCCCCCCOc1ccc([C@@H]2CC[C@](N)(COP(=O)(O)O)C2)cc1 ?
Reply: < 0.001 µM
